# credit: paper PMC9697818

Target: hCA IX (Homo sapiens)
Construct: recombinant, tumor-associated transmembrane isoform
Assay: stopped-flow CO2 hydration assay
pKi: −log10 of the molar value.
measured.metric: pKi

[a] COc1ccc(/C=C2/SC(=S)N(CC(=O)Nc3ccc(S(N)(=O)=O)cc3)C2=O)cc1 [7k]
[b] NS(=O)(=O)c1ccc(NC(=O)CN2C(=O)/C(=C\c3cccc(Oc4ccccc4)c3)SC2=S)cc1 [7m]
Hi there, can you help? I need to know whether a or b has lower measured pKi. Identify your pick by its label. b

[A] NS(=O)(=O)c1ccc(NC(=O)CN2C(=O)/C(=C\c3ccc(OC(F)(F)F)cc3)SC2=S)cc1 [7c]
[B] COc1cc(/C=C2/SC(=S)N(CC(=O)Nc3ccc(S(N)(=O)=O)cc3)C2=O)cc(OC)c1OC [7g]
[C] CC(C)c1ccc(/C=C2/SC(=S)N(CC(=O)Nc3ccc(S(N)(=O)=O)cc3)C2=O)cc1 [7l]
hey, can you rank those compounds up there by pKi? biggest number first please Please reply with the labels ordered as requested. Many thanks. B, A, C
(B: 8.38, A: 8.01, C: 7.29)

----------
Target: hCA I (Homo sapiens, UniProt P00915)
Construct: gene CA1; recombinant, cytosolic isoform
Sequence (P00915 2-261): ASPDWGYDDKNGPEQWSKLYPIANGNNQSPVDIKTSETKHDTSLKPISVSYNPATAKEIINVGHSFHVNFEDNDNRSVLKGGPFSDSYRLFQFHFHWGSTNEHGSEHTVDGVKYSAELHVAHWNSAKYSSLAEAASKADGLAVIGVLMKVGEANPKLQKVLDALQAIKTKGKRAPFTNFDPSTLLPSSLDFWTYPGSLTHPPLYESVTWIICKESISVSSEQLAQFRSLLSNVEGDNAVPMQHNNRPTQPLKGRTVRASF
Assay: stopped-flow CO2 hydration assay
Assay type: biochemical
pKi: −log10 of the molar value.
measured.metric: pKi

[P] COc1cc(/C=C2/SC(=S)N(CC(=O)Nc3ccc(S(N)(=O)=O)cc3)C2=O)cc(OC)c1O [7t]
[Q] NS(=O)(=O)c1ccc(NC(=O)CN2C(=O)/C(=C\c3ccccc3F)SC2=S)cc1 [7d]
Dear colleague, could you let me know whether P or Q has the lower recorded pKi? Thanks. To answer, give the label that identifies your chosen option. Q
(Q: 6.65, P: 7.11)

----------
Molecular target: hCA I (Homo sapiens, UniProt P00915)
Construct: recombinant, cytosolic isoform
Assay: stopped-flow CO2 hydration assay
pKi: −log10 of the molar value.
measured.metric: pKi

molecule.smiles | measured.metric | observed.result
N#Cc1ccc(/C=C2/SC(=S)N(CC(=O)Nc3ccc(S(N)(=O)=O)cc3)C2=O)cc1 | pKi | 6.90

[A] C=CCOc1ccc(/C=C2/SC(=S)N(CC(=O)Nc3ccc(S(N)(=O)=O)cc3)C2=O)cc1
[B] NS(=O)(=O)c1ccc(NC(=O)CN2C(=O)/C(=C\c3ccc(Cl)cc3)SC2=S)cc1
Could you point out whether the larger pKi belongs to A or to B ? The response must carry the label of the picked entry. B

----------
Target: hCA II (Homo sapiens, UniProt P00918)
Construct: recombinant, cytosolic isoform
Assay: stopped-flow CO2 hydration assay
pKi: −log10 of the molar value.
measured.metric: pKi

[I] COc1cc(OC)c(/C=C2/SC(=S)N(CC(=O)Nc3ccc(S(N)(=O)=O)cc3)C2=O)c(OC)c1 [7q]
[II] NS(=O)(=O)c1ccc(NC(=O)CN2C(=O)/C(=C\c3ccccc3F)SC2=S)cc1 [7d]
Lower value of pKi belongs to which: I or II ? Respond with the label that goes with your answer. II

[1] COc1ccc(/C=C2/SC(=S)N(CC(=O)Nc3ccc(S(N)(=O)=O)cc3)C2=O)c(OC)c1 [7p]
[2] COc1cccc(/C=C2/SC(=S)N(CC(=O)Nc3ccc(S(N)(=O)=O)cc3)C2=O)c1 [7j]
[3] COc1ccc(/C=C2/SC(=S)N(CC(=O)Nc3ccc(S(N)(=O)=O)cc3)C2=O)cc1OC [7n]
[4] NS(=O)(=O)c1ccc(NC(=O)CN2C(=O)/C(=C3/C(=O)Nc4ccccc43)SC2=S)cc1 [9a]
Please list these compounds in decreasing order of pKi. Please, when replying, give the labels in the order that was requested. 4, 1, 3, 2
(4: 8.37, 1: 8.10, 3: 7.81, 2: 7.34)

[P] Cc1ccc2c(c1)/C(=C1/SC(=S)N(CC(=O)Nc3ccc(S(N)(=O)=O)cc3)C1=O)C(=O)N2 [9b]
[Q] COc1ccc(/C=C2/SC(=S)N(CC(=O)Nc3ccc(S(N)(=O)=O)cc3)C2=O)cc1 [7k]
[R] NS(=O)(=O)c1ccc(NC(=O)CN2C(=O)/C(=C\c3cccc(Oc4ccccc4)c3)SC2=S)cc1 [7m]
[S] COc1cc(/C=C2/SC(=S)N(CC(=O)Nc3ccc(S(N)(=O)=O)cc3)C2=O)cc(OC)c1OC [7g]
Falling order of pKi, please. Note for the reader: the ranking is given by listing the labels in the order requested. P, Q, S, R
(P: 8.26, Q: 7.90, S: 7.50, R: 7.26)

----------
Biological target: hCA I (Homo sapiens)
Construct: recombinant, cytosolic isoform
Assay: stopped-flow CO2 hydration assay
measured.metric: Ki (nM)

compound | target.system | output.unit | Ki
COc1ccc(/C=C2/SC(=S)N(CC(=O)Nc3ccc(S(N)(=O)=O)cc3)C2=O)cc1 [7k] | hCA I (Homo sapiens) | nM | 78.6

[A] Cc1ccc2c(c1)/C(=C1/SC(=S)N(CC(=O)Nc3ccc(S(N)(=O)=O)cc3)C1=O)C(=O)N2 [9b]
[B] NS(=O)(=O)c1ccc(NC(=O)CN2C(=O)/C(=C\c3ccc(OC(F)(F)F)cc3)SC2=S)cc1 [7c]
[C] COc1ccc(/C=C2/SC(=S)N(CC(=O)Nc3ccc(S(N)(=O)=O)cc3)C2=O)c(OC)c1 [7p]
Reorder the items by Ki, least to greatest. Answer by writing out the labels in the requested order. A, C, B
(A: 92.2 nM, C: 386 nM, B: 2410 nM)

----------
Molecular target: hCA XII (Homo sapiens, UniProt O43570)
Construct: gene CA12; recombinant, tumor-associated transmembrane isoform
Sequence (O43570 30-289 limits assumed): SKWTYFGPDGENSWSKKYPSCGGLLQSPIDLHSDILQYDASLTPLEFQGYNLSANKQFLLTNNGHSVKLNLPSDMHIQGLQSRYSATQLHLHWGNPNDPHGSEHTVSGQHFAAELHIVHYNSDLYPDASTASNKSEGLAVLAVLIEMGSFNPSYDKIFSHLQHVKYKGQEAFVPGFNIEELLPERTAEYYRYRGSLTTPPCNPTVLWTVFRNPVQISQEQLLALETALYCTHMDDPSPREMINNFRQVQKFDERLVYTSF
Test: stopped-flow CO2 hydration assay
Assay type: biochemical
Source text: stopped-flow CO2 hydration assay on hCA XII
measured.metric: Ki (nM)

Use these answered entries as a reference point.
molecule.smiles | measured.metric | observed.result
NS(=O)(=O)c1ccc(NC(=O)CN2C(=O)/C(=C\c3cccc(Oc4ccccc4)c3)SC2=S)cc1 | Ki | 47
COc1ccc(/C=C2/SC(=S)N(CC(=O)Nc3ccc(S(N)(=O)=O)cc3)C2=O)cc1 | Ki | 58.2
COc1cccc(/C=C2/SC(=S)N(CC(=O)Nc3ccc(S(N)(=O)=O)cc3)C2=O)c1 | Ki | 73.6
COc1cc(/C=C2/SC(=S)N(CC(=O)Nc3ccc(S(N)(=O)=O)cc3)C2=O)cc(OC)c1O | Ki | 30.2
COc1cc(OC)c(OC)cc1/C=C1/SC(=S)N(CC(=O)Nc2ccc(S(N)(=O)=O)cc2)C1=O | Ki | 9.5
NS(=O)(=O)c1ccc(NC(=O)CN2C(=O)/C(=C\c3cccc([N+](=O)[O-])c3)SC2=S)cc1 | Ki | 9

[a] N#Cc1ccc(/C=C2/SC(=S)N(CC(=O)Nc3ccc(S(N)(=O)=O)cc3)C2=O)cc1
[b] CCOc1cc(/C=C2/SC(=S)N(CC(=O)Nc3ccc(S(N)(=O)=O)cc3)C2=O)ccc1O
Among a and b , whose measured Ki is the smaller figure? Respond using the label that marks the chosen record. a
(a: 9 nM, b: 63.7 nM)

----------
Biological target: hCA IX (Homo sapiens)
Construct: recombinant, tumor-associated transmembrane isoform
Test: stopped-flow CO2 hydration assay
pKi: −log10 of the molar value.
measured.metric: pKi

[a] COc1cc(OC)c(/C=C2/SC(=S)N(CC(=O)Nc3ccc(S(N)(=O)=O)cc3)C2=O)c(OC)c1
[b] NS(=O)(=O)c1ccc(NC(=O)CN2C(=O)/C(=C3/C(=O)Nc4ccccc43)SC2=S)cc1
Kindly compare a with b and tell me which has the lower pKi figure. # answer = label of selected item a

----------
Target: hCA IX (Homo sapiens)
Construct: recombinant, tumor-associated transmembrane isoform
Assay: stopped-flow CO2 hydration assay
pKi: −log10 of the molar value.
measured.metric: pKi

molecule.smiles | target.system | pKi
NS(=O)(=O)c1ccc(NC(=O)CN2C(=O)/C(=C3/C(=O)Nc4ccc(C(F)(F)F)cc43)SC2=S)cc1 | hCA IX (Homo sapiens) | 7.88

[P] NS(=O)(=O)c1ccc(NC(=O)CN2C(=O)/C(=C3/C(=O)Nc4ccc(Cl)cc43)SC2=S)cc1
[Q] NS(=O)(=O)c1ccc(NC(=O)CN2C(=O)/C(=C\c3ccc(Cl)cc3)SC2=S)cc1
Which item exceeds the other in pKi, P or Q ? Please identify the chosen entry by its label. P

----------
Target: hCA I (Homo sapiens, UniProt P00915)
Construct: recombinant, cytosolic isoform
Assay: stopped-flow CO2 hydration assay
pKi: −log10 of the molar value.
measured.metric: pKi

molecule.smiles | observed.result
CC(C)c1ccc(/C=C2/SC(=S)N(CC(=O)Nc3ccc(S(N)(=O)=O)cc3)C2=O)cc1 | 6.37
NS(=O)(=O)c1ccc(NC(=O)CN2C(=O)/C(=C3/C(=O)Nc4ccc(C(F)(F)F)cc43)SC2=S)cc1 | 6.50
NS(=O)(=O)c1ccc(NC(=O)CN2C(=O)/C(=C\c3cccc([N+](=O)[O-])c3)SC2=S)cc1 | 7.11
COc1cccc(/C=C2/SC(=S)N(CC(=O)Nc3ccc(S(N)(=O)=O)cc3)C2=O)c1 | 6.64
NS(=O)(=O)c1ccc(NC(=O)CN2C(=O)/C(=C\c3ccc(F)c(F)c3)SC2=S)cc1 | 6.67

[I] COc1cc(OC)c(/C=C2/SC(=S)N(CC(=O)Nc3ccc(S(N)(=O)=O)cc3)C2=O)c(OC)c1
[II] COc1ccc(/C=C2/SC(=S)N(CC(=O)Nc3ccc(S(N)(=O)=O)cc3)C2=O)cc1OC
Could you tell me which of these two has the smaller pKi figure? First: I Second: II Answer with the label corresponding to your selection. I
(I: 6.53, II: 7.08)
